- protocol_details: Solubility in water
- Format: physicochemical
reported_metric: solubility

Entry O=Cc1ccccc1 needs its solubility filled in; supply it. ~3000 µg/mL
